The reported measurements were obtained from patent US7964630B2.

# Tested on: co-culture model of human muscle cells and neurons from the spinal marrow of rat embryos
# Method description: Efficacy test: frequency of muscle contractions in a nerve-muscle co-culture model
# Assay type: cell-based, human (myoblasts), rat (embryo spinal explants)
# Condition set: 0.1 mM; 48 hours after incubation; contractions counted for 30 seconds, compared to number before incubation; means of 3 measurements
Non-standard residues stand in square brackets, D forms with d. Residues, ends and D or L forms follow the SMILES beside them. *: point of attachment. NHPhenethyl = c1ccc(CCN*)cc1; Dap = NC[CH](N)C(=O)O; NHBn = c1ccc(CN*)cc1
Below, each of the compounds is paired with its reported Variation Δ [in %] of the number of muscle contractions (48 h) value.
Measurement kind: Variation Δ [in %] of the number of muscle contractions (48 h) (%)

- Compound: "CC(N)C(=O)N1CCCC1C(=O)NC(CCCNC(=N)N)C(=O)NC(CCCNC(=N)N)C(=O)NCc1ccccc1 (stereo not drawn) [4.3] (H-APRR-NHBn; configuration not given here)"
  Reading: 88
- Compound: "CC(N)C(=O)N1CCCC1C(=O)NC(CCCNC(=N)N)C(=O)NCc1ccccc1 (stereo not drawn) [4.2] (H-Ala-Pro-Arg-NHBn; configuration not given here)"
  Reading: 37
- Compound: "CC(N)C(=O)N1CCCC1C(=O)NC(CCCNC(=N)N)C(=O)NCCc1ccccc1 (stereo not drawn) [4.7] (H-Ala-Pro-Arg-NHPhenethyl; configuration not given here)"
  Reading: 74
- Compound: "C[C@H](N=C(N(C)C)N(C)C)C(=O)N1CCC[C@@H]1C(=O)N[C@@H](CCCNC(=N)N)C(=O)NCc1ccccc1"
  Reading: 96
- Compound: "COc1ccc(CNC(=O)C(CCCNC(=N)N)NC(=O)C2CCCN2C(=O)C(C)N)cc1 (stereo not drawn)"
  Reading: 132
- Compound: "N=C(N)NCCCC(NC(=O)C1CCCN1C(=O)C(N)CN)C(=O)NCc1ccccc1 (stereo not drawn) [4.6] (H-[Dap]-Pro-Arg-NHBn; configuration not given here)"
  Reading: 43
